Exercise: for every item that follows, state its recorded IC50.
Biological target: human TLR8 (Homo sapiens)
Construct: expressed in transfected cells
Sequence (Q9NR97 27-1041): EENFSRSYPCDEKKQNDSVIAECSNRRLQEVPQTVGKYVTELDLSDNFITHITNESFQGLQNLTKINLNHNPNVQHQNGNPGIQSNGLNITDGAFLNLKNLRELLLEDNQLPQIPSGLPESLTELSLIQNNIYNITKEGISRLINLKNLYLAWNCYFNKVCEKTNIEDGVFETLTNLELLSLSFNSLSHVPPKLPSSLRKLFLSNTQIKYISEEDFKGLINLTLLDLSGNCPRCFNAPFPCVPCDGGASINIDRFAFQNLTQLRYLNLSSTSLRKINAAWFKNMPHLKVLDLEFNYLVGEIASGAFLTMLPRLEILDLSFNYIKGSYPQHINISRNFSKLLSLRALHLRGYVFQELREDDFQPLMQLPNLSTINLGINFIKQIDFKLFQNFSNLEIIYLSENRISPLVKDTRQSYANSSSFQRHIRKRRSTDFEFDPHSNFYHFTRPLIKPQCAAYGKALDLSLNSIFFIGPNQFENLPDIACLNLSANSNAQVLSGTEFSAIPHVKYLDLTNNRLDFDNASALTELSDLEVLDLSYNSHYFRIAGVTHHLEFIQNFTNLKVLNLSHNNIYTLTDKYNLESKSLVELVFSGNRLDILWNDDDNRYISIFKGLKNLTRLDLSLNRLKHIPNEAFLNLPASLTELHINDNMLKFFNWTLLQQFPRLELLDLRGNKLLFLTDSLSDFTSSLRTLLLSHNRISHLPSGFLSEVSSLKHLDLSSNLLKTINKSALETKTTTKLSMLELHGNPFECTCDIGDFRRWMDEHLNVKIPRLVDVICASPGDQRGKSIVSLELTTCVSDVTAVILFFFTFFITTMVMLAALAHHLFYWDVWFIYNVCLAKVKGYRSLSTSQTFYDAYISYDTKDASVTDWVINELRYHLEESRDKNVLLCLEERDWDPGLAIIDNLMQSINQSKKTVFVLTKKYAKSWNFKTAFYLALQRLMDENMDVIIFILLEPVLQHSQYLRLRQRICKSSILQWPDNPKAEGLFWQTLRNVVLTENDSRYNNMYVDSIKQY
Assay: HEK-Blue hTLR8 SEAP reporter gene inhibition assay
Format: cell-based
Conditions: hTLR8 HEK-Blue cells, TLR8 ligand 10 µM, 20 hours, SEAP by Quanti-blue; class symbols; read-out: HEK-Blue hTLR8 IC50

These recorded examples may help you get a feel for the data.
C[C@@H]1CN(c2ccc(C#N)n3ncc(F)c23)Cc2c3c(nn21)CNC(c1cnn(C)c1)C3 (some centres unmarked)
< 100 nM
C[C@@H]1CN(c2ccc(C#N)n3ncc(F)c23)Cc2c3c(nn21)CC1CCC3N1 (some centres unmarked)
< 100 nM
C[C@@H]1CN(c2ccc(C#N)n3ncc(F)c23)Cc2c3c(nn21)CC(N)CC3 (single isomer, unassigned) [Example I-20a]
< 100 nM
C[C@@H]1CN(c2ccc(C#N)n3ncc(F)c23)Cc2c3c(nn21)CN([C@H]1CCNC1=O)[C@@H](C)C3
> 100 nM

Give me IC50 for each of these molecules, listed below.
1. C[C@H]1CN(c2ccc(C#N)n3ncc(F)c23)Cc2c3c(nn21)CNCC3
2. C[C@@H]1CN(c2ccc(C#N)n3ncc(F)c23)Cc2c3c(nn21)CN(Cc1cn[nH]c1)CC3
3. CC1Cc2nn3c(c2CN1)CN(c1ccc(C#N)n2ncc(F)c12)C[C@H]3C (single isomer, unassigned) [Example I-11b]

> 100 nM
< 100 nM
< 100 nM

From: patent EP4644396A1
